B1: VPS39 (parent)
chain: QQVKCIITEEKVCMVCKKKIGNSA

# Variants of: B1
# experiment.description: protein stability index of a GFP-peptide fusion (GPS, HEK-293T) (PSI 1-6); higher = more stable;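 note: lentivirally expressed fusions sorted by FACS into six bins by GFP to DsRed ratio, PSI derived from sequencing read proportions per bin multiplied by bin number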
# condition.context: c terminus: a fixed tail appended
protein stability index values by entry
assay.readout: protein stability index

[
  {
    "mutant.label": "V12N",
    "assay.readout": "protein stability index",
    "measurement": 3.68
  },
  {
    "mutant.label": "I20E",
    "assay.readout": "protein stability index",
    "measurement": 4.03
  },
  {
    "mutant.label": "V12A",
    "assay.readout": "protein stability index",
    "measurement": 3.41
  },
  {
    "mutant.label": "K17H",
    "assay.readout": "protein stability index",
    "measurement": 2.46
  },
  {
    "mutant.label": "E10N",
    "assay.readout": "protein stability index",
    "measurement": 2.01
  },
  {
    "mutant.label": "I7Y",
    "assay.readout": "protein stability index",
    "measurement": 3.28
  },
  {
    "mutant.label": "E10T",
    "assay.readout": "protein stability index",
    "measurement": 2.41
  },
  {
    "mutant.label": "Q2I",
    "assay.readout": "protein stability index",
    "measurement": 1.45
  },
  {
    "mutant.label": "V12R",
    "assay.readout": "protein stability index",
    "measurement": 2.88
  },
  {
    "mutant.label": "I7P",
    "assay.readout": "protein stability index",
    "measurement": 4.23
  },
  {
    "mutant.label": "I7N",
    "assay.readout": "protein stability index",
    "measurement": 2.84
  },
  {
    "mutant.label": "K17Y",
    "assay.readout": "protein stability index",
    "measurement": 3.09
  },
  {
    "mutant.label": "T8H",
    "assay.readout": "protein stability index",
    "measurement": 2.81
  }
]

Data origin: the supplement of paper PMC10567573
